Biological target: T1, EXO-L (Egl512-770) (Drosophila melanogaster, UniProt Q9W1K4 512-770)
T1 sequence: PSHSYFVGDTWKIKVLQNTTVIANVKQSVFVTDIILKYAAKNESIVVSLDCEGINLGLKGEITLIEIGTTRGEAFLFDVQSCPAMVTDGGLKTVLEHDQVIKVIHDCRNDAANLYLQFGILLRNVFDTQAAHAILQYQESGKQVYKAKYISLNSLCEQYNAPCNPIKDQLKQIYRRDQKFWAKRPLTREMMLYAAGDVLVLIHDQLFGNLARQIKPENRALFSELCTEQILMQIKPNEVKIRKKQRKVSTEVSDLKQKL
Assay: fluorescence anisotropy; FA: 20 mM HEPES-NaOH pH 7.5, 100 mM NaCl, 10% glycerol, 20 C, 10 nM FAM-RNA; competition: 150 nM Egl512-819 + 10 nM FAM-K10 TLS, same buffer
Details: protein: recombinant; tags: N-terminal GST; label: 5'-6-FAM; hairpin with two bulges
Measure: pKd
pKd field: float, defined as -log10 of concentration (mol/L).

Sure, the documented pKd for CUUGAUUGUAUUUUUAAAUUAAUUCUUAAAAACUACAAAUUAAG (structured_RNA) [K10 TLS (FAM)] is 6.09

Reference for the values: paper doi:10.1101/2025.08.03.668247
